Data provenance: paper PMC7688211

Attribute: Kd
# target-under-test: BpAXBP1 (Bifidobacterium pseudocatenulatum)
# Construct: predicted signal peptide removed, N-terminal His tag (pCold I), E. coli BL21; primers encode native start ACGGGTN after IEGRH linker and end KNLKVKK; immobilised on CM5 chip
# experiment-description: SPR (Biacore T200), SBP immobilised on CM5
# Assay type: binding
# test-parameters: 25°C, 20 mM phosphate/citrate pH 6.5, 150 mM NaCl, 0.005% Tween 20; read-out: Kd
measurement-label: Kd (µM)

[[record]]
molecule = "OC[C@@H]1O[C@@H](O[C@@H]2[C@@H](O)[C@H](O[C@@H]3CO[C@@H](O[C@@H]4COC(O)[C@H](O)[C@H]4O)[C@H](O)[C@H]3O)OC[C@H]2O[C@@H]2OC[C@@H](O)[C@H](O)[C@H]2O)[C@H](O)[C@H]1O (stereo partly drawn) [AXOS4, 3^3-α-L-arabinofuranosyl-xylotetraose]"
units_label = "µM"
observed_measurement = 7.5

[[record]]
molecule = "OC1OC[C@@H](O[C@@H]2OC[C@@H](O[C@@H]3OC[C@@H](O)[C@H](O)[C@H]3O)[C@H](O)[C@H]2O)[C@H](O)[C@H]1O (some centres unmarked) [XOS3, xylotriose]"
units_label = "µM"
observed_measurement = 18.7

[[record]]
molecule = "OC1OC[C@@H](O[C@@H]2OC[C@@H](O[C@@H]3OC[C@@H](O[C@@H]4OC[C@@H](O[C@@H]5OC[C@@H](O)[C@H](O)[C@H]5O)[C@H](O)[C@H]4O)[C@H](O)[C@H]3O)[C@H](O)[C@H]2O)[C@H](O)[C@H]1O (some centres unmarked) [XOS5, xylopentaose]"
units_label = "µM"
observed_measurement = 1.5

[[record]]
molecule = "OC1OC[C@@H](O[C@@H]2OC[C@@H](O[C@@H]3OC[C@@H](O[C@@H]4OC[C@@H](O[C@@H]5OC[C@@H](O[C@@H]6OC[C@@H](O)[C@H](O)[C@H]6O)[C@H](O)[C@H]5O)[C@H](O)[C@H]4O)[C@H](O)[C@H]3O)[C@H](O)[C@H]2O)[C@H](O)[C@H]1O (some centres unmarked) [XOS6, xylohexaose]"
units_label = "µM"
observed_measurement = 8.2

[[record]]
molecule = "OC1OC[C@@H](O[C@@H]2OC[C@@H](O[C@@H]3OC[C@@H](O[C@@H]4OC[C@@H](O)[C@H](O)[C@H]4O)[C@H](O)[C@H]3O)[C@H](O)[C@H]2O)[C@H](O)[C@H]1O (some centres unmarked) [XOS4, xylotetraose]"
units_label = "µM"
observed_measurement = 0.63


----------
Attribute: Kd
# target-under-test: BpAXBP2
# Construct: predicted signal peptide removed, N-terminal His tag (pCold I), E. coli BL21; primers encode native start ASKDEN after IEGRH linker and end ALPTE; immobilised on CM5 chip
# experiment-description: SPR (Biacore T200), SBP immobilised on CM5
# test-parameters: 25°C, 20 mM phosphate/citrate pH 6.5, 150 mM NaCl, 0.005% Tween 20
measurement-label: Kd (µM)

[[record]]
compound = "OC[C@@H]1O[C@@H](O[C@H]2[C@H](O[C@@H]3CO[C@@H](O[C@@H]4COC(O)[C@H](O)[C@H]4O)[C@H](O)[C@H]3O)OC[C@@H](O)[C@@H]2O)[C@H](O)[C@H]1O (stereo partly shown)"
measurement_label = "Kd"
observed_measurement = 19.2

[[record]]
compound = "OC[C@@H]1O[C@@H](O[C@@H]2[C@@H](O[C@@H]3O[C@@H](CO)[C@H](O)[C@H]3O)[C@H](O[C@@H]3CO[C@@H](O[C@@H]4COC(O)[C@H](O)[C@H]4O)[C@H](O)[C@H]3O)OC[C@H]2O)[C@H](O)[C@H]1O (stereo partly shown)"
measurement_label = "Kd"
observed_measurement = 0.69

[[record]]
compound = "OC[C@@H]1O[C@@H](O[C@@H]2[C@@H](O)[C@H](O[C@@H]3CO[C@@H](O[C@@H]4COC(O)[C@H](O)[C@H]4O)[C@H](O)[C@H]3O)OC[C@H]2O[C@@H]2OC[C@@H](O)[C@H](O)[C@H]2O)[C@H](O)[C@H]1O (stereo partly shown)"
measurement_label = "Kd"
observed_measurement = 103

[[record]]
compound = "OC[C@@H]1O[C@@H](O[C@@H]2[C@@H](O)[C@H](O[C@@H]3COC(O)[C@H](O)[C@H]3O)OC[C@H]2O)[C@H](O)[C@H]1O (stereo partly shown)"
measurement_label = "Kd"
observed_measurement = 0.66


----------
Attribute: Kd
# target-under-test: BpAXBP3 (Bifidobacterium pseudocatenulatum, UniProt A0ABY6YA63)
# Construct: predicted signal peptide removed, N-terminal His tag (pCold I), E. coli BL21; primers encode native start KDDKTITFW after IEGRH linker and end AASKG; immobilised on CM5 chip
# Sequence (A0ABY6YA63 29-424): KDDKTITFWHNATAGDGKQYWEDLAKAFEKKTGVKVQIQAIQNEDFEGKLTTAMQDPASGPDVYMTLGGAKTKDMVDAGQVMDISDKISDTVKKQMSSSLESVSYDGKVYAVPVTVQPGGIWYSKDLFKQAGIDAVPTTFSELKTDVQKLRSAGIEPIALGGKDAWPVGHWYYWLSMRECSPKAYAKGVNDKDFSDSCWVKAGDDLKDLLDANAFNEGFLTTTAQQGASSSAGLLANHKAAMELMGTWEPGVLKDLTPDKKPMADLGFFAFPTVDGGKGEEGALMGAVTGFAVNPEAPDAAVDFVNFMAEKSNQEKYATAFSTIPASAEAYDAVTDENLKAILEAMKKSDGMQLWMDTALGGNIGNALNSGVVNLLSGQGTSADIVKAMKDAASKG
# experiment-description: SPR (Biacore T200), SBP immobilised on CM5
# test-parameters: 25°C, 20 mM phosphate/citrate pH 6.5, 150 mM NaCl, 0.005% Tween 20
measurement-label: Kd

[[record]]
compound = "OC1OC[C@@H](O[C@@H]2OC[C@@H](O[C@@H]3OC[C@@H](O)[C@H](O)[C@H]3O)[C@H](O)[C@H]2O)[C@H](O)[C@H]1O (stereo partly drawn)"
observed_measurement = "< 100 µM"

[[record]]
compound = "OC1OC[C@@H](O[C@@H]2OC[C@@H](O)[C@H](O)[C@H]2O)[C@H](O)[C@H]1O (stereo partly drawn)"
observed_measurement = "< 100 µM"

[[record]]
compound = "OC1OC[C@@H](O[C@@H]2OC[C@@H](O[C@@H]3OC[C@@H](O[C@@H]4OC[C@@H](O[C@@H]5OC[C@@H](O)[C@H](O)[C@H]5O)[C@H](O)[C@H]4O)[C@H](O)[C@H]3O)[C@H](O)[C@H]2O)[C@H](O)[C@H]1O (stereo partly drawn)"
observed_measurement = "< 100 µM"


----------
# target-under-test: BpAXBP3 (Bifidobacterium pseudocatenulatum)
# Construct: predicted signal peptide removed, N-terminal His tag (pCold I), E. coli BL21; primers encode native start KDDKTITFW after IEGRH linker and end AASKG; immobilised on CM5 chip
# experiment-description: SPR (Biacore T200), SBP immobilised on CM5
# test-parameters: 25°C, 20 mM phosphate/citrate pH 6.5, 150 mM NaCl, 0.005% Tween 20
pKd: −log10 of the molar value.
measurement-label: pKd

[[record]]
molecule = "OC[C@@H]1O[C@@H](O[C@H]2[C@H](O[C@@H]3CO[C@@H](O[C@@H]4COC(O)[C@H](O)[C@H]4O)[C@H](O)[C@H]3O)OC[C@@H](O)[C@@H]2O)[C@H](O)[C@H]1O (some centres unmarked)"
measurement_label = "pKd"
observed_measurement = "> 4.00"

[[record]]
molecule = "OC[C@@H]1O[C@@H](O[C@@H]2[C@@H](O)[C@H](O[C@@H]3COC(O)[C@H](O)[C@H]3O)OC[C@H]2O)[C@H](O)[C@H]1O (some centres unmarked)"
measurement_label = "pKd"
observed_measurement = "> 4.00"


----------
Attribute: pKd
# target-under-test: BpAXBP3 (Bifidobacterium pseudocatenulatum)
# Construct: gene msmE_1; predicted signal peptide removed, N-terminal His tag (pCold I), E. coli BL21; primers encode native start KDDKTITFW after IEGRH linker and end AASKG; immobilised on CM5 chip
# experiment-description: SPR (Biacore T200), SBP immobilised on CM5
# Format: binding
# test-parameters: 25°C, 20 mM phosphate/citrate pH 6.5, 150 mM NaCl, 0.005% Tween 20
pKd: −log10 of the molar value.
measurement-label: pKd

[[record]]
compound = "OC[C@@H]1O[C@@H](O[C@@H]2[C@@H](O)[C@H](O[C@@H]3CO[C@@H](O[C@@H]4COC(O)[C@H](O)[C@H]4O)[C@H](O)[C@H]3O)OC[C@H]2O[C@@H]2OC[C@@H](O)[C@H](O)[C@H]2O)[C@H](O)[C@H]1O (stereo partly drawn)"
observed_measurement = "> 4.00"

[[record]]
compound = "OC1OC[C@@H](O[C@@H]2OC[C@@H](O[C@@H]3OC[C@@H](O[C@@H]4OC[C@@H](O[C@@H]5OC[C@@H](O[C@@H]6OC[C@@H](O)[C@H](O)[C@H]6O)[C@H](O)[C@H]5O)[C@H](O)[C@H]4O)[C@H](O)[C@H]3O)[C@H](O)[C@H]2O)[C@H](O)[C@H]1O (stereo partly drawn)"
observed_measurement = "> 4.00"

[[record]]
compound = "OC1OC[C@@H](O[C@@H]2OC[C@@H](O[C@@H]3OC[C@@H](O[C@@H]4OC[C@@H](O)[C@H](O)[C@H]4O)[C@H](O)[C@H]3O)[C@H](O)[C@H]2O)[C@H](O)[C@H]1O (stereo partly drawn)"
observed_measurement = "> 4.00"

